Test: yeast display, Sf9 membrane polyspecificity reagent, FACS + sequencing; frameworks hold sequencing errors
MEASUREMENT_KIND: polyreactivity (PSR sort gate)

Some solved entries appear below for comparison.
| SEQUENCE_INPUT | MEASUREMENT_KIND | REPORTED_RESULT |
| --- | --- | --- |
| QVQLVESGGGFVQAGGSLSLSCAASGSTFIRYVMGWYRQAPGKERELVASITISVGSTYADSVKGRFTISRDNAKNTVYLQMNRMNPEDTAVYYCAASTLKDIYLWFRVDYWGQGTQVTVSS | polyreactivity (PSR sort gate) | low polyreactivity |
| QVQLVESGGGLVQAGGSLRLSCAASGGTQRYYAMGWYRQAPGKEREFVASISRSGGSTYYADSVKGRFTISRDNAKNTVYLQMNSLKPEDTAVYYCAAYWSPGYTTRRGYWGQGTQVTVSS | polyreactivity (PSR sort gate) | high polyreactivity |
| QVPVVASGGGFVQAGGRLRLSCAASGRTFFYNAMGWYRQAPGKERESTYYADSVKGRFTISRDNAKNTVYLQMNSLKPEDTAVYYFAAATAYVAYEGDKGDYWGQGTQVTVSA | polyreactivity (PSR sort gate) | low polyreactivity |
| QVQHVESGGGLVQAGGSLRLSCAASGFTFAYYAKGWYRQAPGKERELVARISSGGSTYYADSVKGRFTISRDNAKNTVYLQMNSLKPEDTAVYYCAARSYYISPWRFDYWGQGTQVTVSS | polyreactivity (PSR sort gate) | high polyreactivity |

Please examine the following record next.
Give its polyreactivity (PSR sort gate) value. Item: QVQLVESGGGLVQAGGSLRLSCAASGRTFQLNAMGCYRQAPGKERELVAAISTRGGSTYYADSVKGRFTISRDNAKNTVYLQMNSLKPEDTAVYYCAKDPSFTRGYKDGGGYDYWGQGTQVTVSS
high polyreactivity
